test system: SF-539 CNS; assay: NCI tumour cell line growth inhibition, 48 h; in the data active = GI50 below about 0.43 µM; inactive = the rest
Your response should consist of one outcome taken from active, inactive

NC1CCCCC1N.O=S(=O)([O-])CCCN1CCOCC1.O=S(=O)([O-])CCCN1CCOCC1.[Pt+4] ... inactive
CC[Si](CC)(CC)OC[C@]1([C@@H]2COC(C)(C)O2)CC=CC(=O)O1 ... inactive
COc1cc2cc(C(=O)Nc3cc(N)c4ccccc4c3CCCl)[nH]c2c(OC)c1OC ... active
COc1c(Cl)c2c(c(OC)c1OC)-c1ccc(SC)c(=O)cc1[C@@H](NC(=O)OCC(F)(F)F)CC2 ... active
NC(=N\N=C/c1cccc([N+](=O)[O-])c1)/C(N)=N\N=C/c1cccc([N+](=O)[O-])c1 ... inactive

Consider now this further molecule.
Problem: Just curious, what result did COC(=O)c1c2c(c(C)[n+]([O-])c1C)C(=O)C=C(NCc1ccc(OC)cc1)C2=O get here?
Result: inactive

----------
tested on: EKVX NSCLC; assay: NCI tumour cell line growth inhibition, 48 h
ATTRIBUTE MEASURED: GI50

// worked examples, GI50 included
c1cc(OCCN2CCCCC2)ccc1CNc1ccc2nc(CCC3CCCCC3)[nH]c2c1 ... 1.99 µM
CCOc1ccc(Nc2nc(-c3ccc4c(c3)NC(=O)CO4)cs2)cc1 ... 6.59 µM
CCN=c1cc2sc3cc(NCC)c(C)cc3nc-2cc1C ... 0.632 µM
C=CCN1C=CC(=O)[C@H](O[Si](C)(C)C(C)(C)C)[C@@H]1/C=C/c1ccccc1 ... 14 µM
CCC[CH2][Sn]([CH2]CCC)([O]C(=O)C(N)CSC)[O]C(=O)C(N)CSC (stereo not given) ... 12.1 µM

Consider the record given below.
Problem: What measured GI50 goes with COC(=O)c1c2c(c(C)[n+]([O-])c1C)C(=O)C=C(NCc1ccc(OC)cc1)C2=O ?
Result: 1.92 µM

----------
test system: CAKI-1 renal; assay: NCI tumour cell line growth inhibition, 48 h
ATTRIBUTE MEASURED: TGI

Problem: For the record COc1cc([C@@H]2c3cc4c(cc3C[C@@H]3COC(=O)C32)OCO4)cc(OC)c1O (some centres not stated) , what value of TGI is listed for CAKI-1 renal?
Result: 0.823 µM

Problem: GET /values?readout=TGI&system=CAKI-1 renal&item= COc1ccc2c(CN3CCC[C@H]3C(=O)O)cc3cc4c(cc3c2c1)OCO4
Result: 88.6 µM

Problem: Lab note: need TGI with CAKI-1 renal for entry COc1cc(C=Nc2ccc(C(C)C)cc2)cc(OC)c1OC , please look it up.
Result: > 100 µM

----------
test system: OVCAR-4 ovarian; experiment: NCI tumour cell line growth inhibition, 48 h
If the reported TGI equals or exceeds 20 µM, assign yes (1). If not, assign no (0).

O=C1NC(=S)NC(=O)C1=Cc1cccc2cc3ccccc3cc12 ... no (0)
CCC[CH2][Sn]([CH2]CCC)([O]C(=O)C(N)CSC)[O]C(=O)C(N)CSC (stereo not given) ... yes (1)

Problem: Confirm if TGI reported for the molecule O=CN1N=C(c2ccc(Cl)cc2)CC1c1cccc(Nc2ccnc3cc(Cl)ccc23)c1 (stereo not given) is 20 µM or above.
Result: no (0)

Problem: Check the entry COc1cc2c(cc1OCCCCCCN1CCN(c3ncnc4ccccc34)CC1)N=CC1CCCN1C2=O (stereo not given) : does TGI equal or exceed 20 µM?
Result: no (0)

Problem: Can COc1ccc2c(c1)N=C1CSC(c3cccc(Br)c3)N1C2 (stereo not given) be said to have TGI at or above 20 µM?
Result: yes (1)

----------
tested on: RXF 393 renal; test: NCI tumour cell line growth inhibition, 48 h
ATTRIBUTE MEASURED: TGI

Problem: Record request: TGI value, item CCC1=CC2Cc3nc4cc(Cl)ccc4c(N)c3C(C1)C2 (stereo not given)
Result: 8.15 µM

Problem: May I ask what TGI has been recorded for CC/C(=C(/CC)c1ccc(O)cc1)c1ccc([O-])cc1.CC/C(=C(/CC)c1ccc(O)cc1)c1ccc([O-])cc1.O=C([CH-]C(=O)c1ccccc1)c1ccccc1.O=C([CH-]C(=O)c1ccccc1)c1ccccc1.[Ti+4] ?
Result: 25.7 µM

Problem: Record request: TGI value, item Cc1cccc(C)c1NC(=S)NC=C(C(N)=O)C(N)=O
Result: > 100 µM

Problem: Look up TGI: CCOC(=O)[C@@H]1ON2O[C@H](OC3CCCC3(c3ccccc3)c3ccccc3)C[C@H]3OC(=O)[C@@H]1C32 (stereo not given in full)
Result: 36.5 µM

Problem: Could you share which TGI value was measured for CC[Si](CC)(CC)OC[C@]1([C@@H]2COC(C)(C)O2)CC=CC(=O)O1 ?
Result: > 100 µM

Problem: Entry under review: COC(=O)C12C3C4C5C3(C#N)C1C5(C(=O)OC)C42C(=O)N(C(C)C)C(C)C (stereo not given) . Reported TGI?
Result: > 100 µM

Problem: Return reported TGI; argument: O=C(O)c1ccc2c(c1)CC1(C2)Cc2ccccc2C1=O (stereo not given)
Result: > 100 µM

Problem: Please give the measured TGI for this molecule: COC(=O)C1=Cc2cc(OC)c(O)cc2[C@@H](c2ccc(O)c(OC)c2)[C@@H]1C(=O)OC
Result: > 100 µM

Problem: I would be grateful if you could share the reported TGI for C[C@H]1C[C@H](C)c2ccccc2N(C)C1=Nc1ccccc1 .
Result: 92.2 µM

Problem: Could you tell me which TGI is on file for Cc1ccc(/C=C/C(=O)c2sc(-c3cccnc3)nc2C)cc1 ?
Result: > 100 µM

Problem: # get_value(readout='TGI', item= NC(N)=N/N=C/c1c(-c2ccc([N+](=O)[O-])cc2)nc2n1CCS2 )
Result: 23.4 µM

Problem: Please give the measured TGI for this molecule: CC(C)(C)[Si](C)(C)OCC1CCC(n2cnc3c(N)ncnc32)O1 (stereo not given)
Result: > 100 µM

Problem: // lookup TGI for O=C1c2ccccc2C2=Nc3ccncc3CN12
Result: > 100 µM

Problem: Fill in: TGI of Cc1cc(N2CCCC2)nc(NC2CCCC(Nc3ccnc4cc(Cl)ccc34)C2)n1 (stereo not given) is ___
Result: 2.71 µM

Problem: Form field: reported TGI of CCOC(=O)C(NC(=O)CC(C)C)(Nc1ccc(S(=O)(=O)Nc2nc(C)cc(C)n2)cc1)C(F)(F)F (stereo not given)
Result: > 100 µM

Problem: Looking for the measured TGI of O=C(Nc1cc[c]([Sb](=[O])([OH])[OH])cc1)c1ccccc1 , can you help?
Result: > 100 µM

Problem: Can you share its TGI? I mean this molecule: CC(=O)/C(=C\C1=CCCO1)C(=O)Nc1ccccc1C
Result: > 100 µM

Problem: Given the entry CCCCc1ccc(-n2c3nc(=O)n(C)c(=O)c-3nc3ccccc32)cc1 , report its measured TGI.
Result: 34.1 µM

Problem: Field request: TGI | item: NC1=NN(c2ccccc2)C2(O)c3ccncc3C3=NN(c4ccccc4)C(=O)C132 (stereo not given)
Result: > 100 µM

Problem: // TGI lookup, key: O=C(Nc1ccc(F)cc1)C(=O)C(C1OC(=O)c2ccccc21)[N+](=O)[O-] (stereo not given)
Result: > 100 µM

----------
tested on: IGROV1 ovarian; assay: NCI tumour cell line growth inhibition, 48 h
Below, each of the compounds is paired with its reported TGI value.

N=C(N)c1csc([C@@H]2O[C@H](CO)[C@@H](O)[C@H]2O)n1 ... > 100 µM
COC(=O)C(=O)C(C(=O)C(=O)Nc1ccccc1C(C)=O)c1nc2ccc(C(=O)c3ccccc3)cc2[nH]c1=O (centres undefined) ... > 100 µM
C(=NCc1ccccc1)c1ccccc1-c1ccccc1C=NCc1ccccc1 ... > 10 µM
[N-]=[NH+]CC(=O)OC(COCc1ccccc1)COCc1ccccc1 ... > 100 µM
CN(C)CCCCN1c2ccccc2Sc2cc(N=[N+]=[N-])ccc21 ... 3.43 µM
COC(=O)C(=O)C(C#N)c1ccc(CC#N)cc1 (centres undefined) ... > 100 µM
O=C(CCc1ccc(O)cc1)NCCc1cccc(OCc2ccccc2)c1 ... > 100 µM
NNc1nc2ccccc2s1 ... > 100 µM

The record that follows has no TGI shown yet.
Problem: Request the reported TGI associated with CCCN1CCN(c2ccc3nc(-c4ccc5nc(-c6cc(OC)ccc6OC)[nH]c5c4)[nH]c3c2)CC1
Result: 30.3 µM

----------
test system: PC-3 prostate; assay: NCI tumour cell line growth inhibition, 48 h
Consider the following compounds and their measured TGI readings.

Use the examples below as a reference point.
N#Cc1c(Cl)c2ccccc2n2c1nc1ccccc12 ... > 100 µM
COC1=C(N2CC2)C(=O)c2nc3n(c2C1=O)CCC3 ... 5.27 µM
CC1(C)CCCCCCC2OC2CCCCCC(C)(C)C1=O (stereo unspecified) ... > 94.6 µM
O=c1[nH]nc(Cc2ccccc2)n1/N=C/c1ccccc1Cl ... > 100 µM

Problem: TGI lookup needed for O=C1NC(=S)NC(=O)C1=Cc1cccc2cc3ccccc3cc12 , thanks.
Result: 3.3 µM

Problem: Can you share its TGI? I mean this compound: COC(=O)C1=C(\c2ccccc2)c2ccccc2C(=O)N(C2CCCCC2)/C=C\1
Result: > 100 µM
